# pIC50 values compiled below
Biological target: PI3Kδ (Homo sapiens, UniProt O00329)
Construct: made in house
Sequence (O00329 whole entry): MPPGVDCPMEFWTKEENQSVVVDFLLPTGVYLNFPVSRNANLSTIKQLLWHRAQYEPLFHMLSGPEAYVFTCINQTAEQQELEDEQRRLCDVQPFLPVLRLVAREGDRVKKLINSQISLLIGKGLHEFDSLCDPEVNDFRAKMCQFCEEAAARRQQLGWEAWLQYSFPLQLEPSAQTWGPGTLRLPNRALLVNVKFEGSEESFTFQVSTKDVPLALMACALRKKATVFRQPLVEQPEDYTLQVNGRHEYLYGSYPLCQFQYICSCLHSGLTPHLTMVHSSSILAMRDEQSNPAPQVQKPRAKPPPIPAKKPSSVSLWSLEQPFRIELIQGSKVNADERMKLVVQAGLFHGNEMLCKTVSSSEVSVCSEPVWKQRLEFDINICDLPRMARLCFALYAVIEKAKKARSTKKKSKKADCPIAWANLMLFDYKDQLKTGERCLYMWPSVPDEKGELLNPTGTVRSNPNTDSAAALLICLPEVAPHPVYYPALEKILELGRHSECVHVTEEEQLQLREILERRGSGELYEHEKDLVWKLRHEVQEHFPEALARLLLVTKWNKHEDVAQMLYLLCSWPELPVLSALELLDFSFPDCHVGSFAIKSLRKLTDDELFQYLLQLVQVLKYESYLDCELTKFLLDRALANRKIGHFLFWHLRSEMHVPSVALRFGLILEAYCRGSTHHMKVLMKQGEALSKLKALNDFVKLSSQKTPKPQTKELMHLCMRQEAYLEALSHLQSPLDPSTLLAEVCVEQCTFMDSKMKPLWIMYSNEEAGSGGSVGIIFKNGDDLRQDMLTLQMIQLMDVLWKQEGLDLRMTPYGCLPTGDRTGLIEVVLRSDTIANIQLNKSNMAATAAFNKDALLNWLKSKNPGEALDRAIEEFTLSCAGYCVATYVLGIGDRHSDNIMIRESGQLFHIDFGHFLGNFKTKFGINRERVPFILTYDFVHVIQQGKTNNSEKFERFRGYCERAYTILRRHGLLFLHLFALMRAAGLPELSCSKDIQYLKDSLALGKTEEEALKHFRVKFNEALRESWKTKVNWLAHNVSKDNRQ
Sequence (P27986 whole entry partner): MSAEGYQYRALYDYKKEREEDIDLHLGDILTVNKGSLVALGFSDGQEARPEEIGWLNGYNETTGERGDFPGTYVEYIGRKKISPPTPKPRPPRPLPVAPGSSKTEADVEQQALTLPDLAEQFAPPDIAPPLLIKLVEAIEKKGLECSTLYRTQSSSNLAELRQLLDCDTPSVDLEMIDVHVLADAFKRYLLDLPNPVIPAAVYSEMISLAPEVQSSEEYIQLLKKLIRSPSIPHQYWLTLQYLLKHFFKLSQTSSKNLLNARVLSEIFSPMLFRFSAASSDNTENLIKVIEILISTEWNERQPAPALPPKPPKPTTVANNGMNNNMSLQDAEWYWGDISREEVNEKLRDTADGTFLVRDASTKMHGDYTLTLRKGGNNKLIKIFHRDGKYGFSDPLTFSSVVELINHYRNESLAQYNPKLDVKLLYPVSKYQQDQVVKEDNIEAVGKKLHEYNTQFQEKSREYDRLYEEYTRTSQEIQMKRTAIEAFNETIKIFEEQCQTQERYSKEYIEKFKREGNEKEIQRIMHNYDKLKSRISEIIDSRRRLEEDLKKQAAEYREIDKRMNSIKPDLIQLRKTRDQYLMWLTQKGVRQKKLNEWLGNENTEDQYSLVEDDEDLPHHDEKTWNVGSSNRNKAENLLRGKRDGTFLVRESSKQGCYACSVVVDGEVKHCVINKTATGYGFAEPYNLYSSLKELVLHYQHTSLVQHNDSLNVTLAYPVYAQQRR
Experiment: Enzymatic activity of PI3K isoforms, TR-FRET assay (PIP3 formation)
Format: biochemical
Details: PI3Kδ; TR-FRET, 2×Km ATP, 10 μM PIP2; read-out: IC50
pIC50: −log10 of the molar value.

Worked cases, answers included:
N#Cc1c(N)nc(N)nc1NC(CC(F)(F)F)c1nc2ccc(F)cc2c(=O)n1-c1cc(F)cc(F)c1 (single isomer, unassigned) [Compound 133a]	< 7.30
CC(C)CC(Nc1nc(N)nc(N)c1C#N)c1nc2cccc(Cl)c2c(=O)n1-c1cccc(C#N)c1 (single isomer, unassigned) [Compound 167a]	7.30 to 8.00

Please find the next molecule below.
Sample COc1cccc(-n2c(C(C)Nc3nc(N)nc(N)c3C#N)nc3cccc(Cl)c3c2=O)c1C (single isomer, unassigned) [Compound 109a-1] , system: PI3Kδ (Homo sapiens, UniProt O00329). Its pIC50 is 7.30 to 8.00

###

Test system: basophils
Assay: Basophil activation in human whole blood (Flow2 CAST kit, CD63 positive cells)
Format: cell-based
Conditions: Homo sapiens, basophil activation
pEC50: −log10 of the molar value.
measurement_label: pEC50

CC(Nc1nc(N)nc(N)c1C#N)c1nc2cccc(F)c2c(=O)n1-c1cccc(F)c1 (single isomer, unassigned) [Compound 182a]	> 8.70
C[C@H](Nc1ncnc(N)c1C#N)c1nc2cccc(F)c2c(=O)n1-c1cccc(F)c1 [Compound V, reference compound]	< 8.40
C[C@H](Nc1ncnc2[nH]cnc12)c1nc2cccc(Cl)c2c(=O)n1-c1ccccc1 [X, reference compound]	< 8.30

Please find the next compound below.
The measured pEC50 associated with C[C@H](Nc1nc(N)nc(N)c1C#N)c1nc2cccc(Cl)c2c(=O)n1-c1cc(F)cc(F)c1 reads > 9.30

###

Test: Hepatocyte stability, 1% final DMSO, 2 μM substrate (t1/2^a)
Type: in vitro ADME
Settings: human, cryopreserved hepatocytes, TA with 1% final DMSO; human hepatocytes; read-out: t1/2^a
measurement_label: half-life at 2 μM

C[C@H](Nc1ncnc(N)c1C#N)c1nc2cccc(Cl)c2c(=O)n1-c1cc(F)cc(F)c1 [Z, reference compound]	< 3 h
C[C@H](Nc1ncnc(N)c1C#N)c1nc2cccc(Cl)c2c(=O)n1-c1ccccc1 [Y, reference compound]	< 2 h
CC(Nc1nc(N)nc(N)c1C#N)c1nc2cccc(Cl)c2c(=O)n1-c1ccccc1 (single isomer, unassigned) [Compound 49a]	> 10 h
C[C@H](Nc1nc(N)nc(N)c1C#N)c1nc2cccc(Cl)c2c(=O)n1-c1cc(F)cc(F)c1 [Compound 1a]	> 9 h

Please find the next compound below.
The measured half-life at 2 μM associated with C[C@H](Nc1ncnc2[nH]cnc12)c1nc2cccc(Cl)c2c(=O)n1-c1ccccc1 [X, reference compound] reads < 1 h

###

# half-life at 2 μM values compiled below
Test: Hepatocyte stability, 1% final DMSO, 2 μM substrate (t1/2^a)
Type: in vitro ADME
Settings: human, cryopreserved hepatocytes, TA with 1% final DMSO, 2 μM substrate, samples at 0, 1, 2, 4 hours; read-out: human hepatocyte t½^a

Worked cases, answers included:
CCC(Nc1nc(N)nc(N)c1C#N)c1nc2c(C)ccc(F)c2c(=O)n1-c1cc(F)cc(F)c1 (single isomer, unassigned) [Compound 37a]	6 to 10 h
Cc1ccc(F)c2c(=O)n(-c3cc(F)cc(F)c3)c(C(C)Nc3nc(N)nc(N)c3C#N)nc12 (single isomer, unassigned) [Compound 35a]	6 to 10 h

The measured half-life at 2 μM associated with CC(Nc1nc(N)nc(N)c1C(N)=O)c1nc2cccc(Cl)c2c(=O)n1-c1cccc(C(F)F)c1 (single isomer, unassigned) [Compound 100a] reads 1 to 3 h

The measured half-life at 2 μM associated with CC(Nc1nc(N)nc(N)c1C#N)c1nc2c(Cl)ccc(F)c2c(=O)n1-c1cc(F)cc(F)c1 (single isomer, unassigned) [Compound 67a] reads > 10 h

The measured half-life at 2 μM associated with Cc1ccc(Cl)c2c(=O)n(-c3ccccc3)c(C(C)Nc3nc(N)nc(N)c3C#N)nc12 (single isomer, unassigned) [Compound 4a] reads 6 to 10 h

The measured half-life at 2 μM associated with CC(Nc1nc(N)nc(N)c1C#N)c1nc2cccc(Cl)c2c(=O)n1-c1cc(Cl)cc(Cl)c1 (single isomer, unassigned) [Compound 41a] reads 3 to 6 h

The measured half-life at 2 μM associated with C[C@H](Nc1ncnc2[nH]cnc12)c1nc2cccc(Cl)c2c(=O)n1-c1ccccc1 [X, reference compound] reads 1 to 3 h

The measured half-life at 2 μM associated with CC(Nc1nc(N)nc(N)c1C#N)c1nc2cccc(Cl)c2c(=O)n1-c1ccccc1 (single isomer, unassigned) [Compound 49a] reads > 10 h

The measured half-life at 2 μM associated with CC(Nc1nc(N)nc(N)c1C#N)c1nc2cccc(F)c2c(=O)n1-c1cccc(C#N)c1 (single isomer, unassigned) [Compound 38a] reads > 10 h

The measured half-life at 2 μM associated with CC(Nc1nc(N)nc(N)c1C#N)c1nc2c(C#N)cccc2c(=O)n1-c1cc(F)cc(F)c1 (single isomer, unassigned) [Compound 101a] reads > 10 h

The measured half-life at 2 μM associated with Cc1ccc(F)cc1-n1c(C(C)Nc2nc(N)nc(N)c2C#N)nc2cccc(Cl)c2c1=O (single isomer, unassigned) [Compound 201a-2] reads 6 to 10 h

The measured half-life at 2 μM associated with CCC(Nc1nc(N)nc(N)c1C#N)c1nc2c(Cl)cccc2c(=O)n1-c1cc(F)cc(F)c1 (single isomer, unassigned) [Compound 72a] reads 6 to 10 h
